Where do these numbers come from? They come from PubChem BioAssay AID179.

Tested on: CEM cells HIV-1 protection, formazan growth assay
ASSAY COMMENT: NCI AIDS Antiviral Assay
TEST CONTEXT: measured here: growth of uninfected CEM cells
Procedure: The ability of compounds to protect human CEM cells from HIV-1 infection is measured as a screen for new compounds capable of inhibiting the HIV virus. Five concentrations of drug were tested on uninfected and infected cells and cell growth was measured using a soluble formazan assay. […] Compounds that provided at least 50% protection were retested. Compounds that provided at least 50% protection on retest were listed as moderately active. […]
Hi there, I'd appreciate the recorded IC50 for every entry that follows.
Give bare numbers, in µM.

Batch of 4 compounds: report IC50 for each.
1. COC(=O)[C@]1(C)CCC[C@@]2(C)C1CC[C@@]13C=C(C(C)C)[C@@H](CC1=O)CC23 (stereo partly drawn)
2. Nc1n[n+]([O-])c2cc([N+](=O)[O-])ccc2[n+]1[O-]
3. CC(=O)OC(C)(C)/C=C/C(=O)[C@](C)(O)[C@H]1[C@H](O)C[C@@]2(C)[C@@H]3CC=C4[C@@H](C[C@H](O)[C@H](O)C4(C)C)[C@]3(C)C(=O)C[C@]12C
4. C=Cc1c(C#N)nc(C)c(C)c1-c1ccc(OC)c(OC)c1OCc1ccccc1

36.3
0.603
0.0912
14.1

----------
Tested on: CEM cells HIV-1 protection, formazan growth assay
ASSAY COMMENT: NCI AIDS Antiviral Assay
METRIC NAME: EC50

These solved cases illustrate the format of a correct answer.
MOLECULE	EC50
COc1ccc(NC2=NCCO2)c2c1CCCC2	> 200 µM
O=C(/C=C/c1ccccc1[N+](=O)[O-])c1ccccc1	> 39.8 µM
CC(O)CCC(=O)NCCS(=O)(=O)O (stereo unspecified)	> 200 µM
O=C(Nc1ccc(Br)cc1)C(=O)C(C(=O)c1ccccc1F)C1OC(=O)c2ccccc21 (stereo unspecified)	> 263 µM
CC1(CCC(=O)c2ccc3c(c2)OCO3)OCCO1	> 97.7 µM

Batch of 3 molecules: report EC50 for each.
1. O=c1c2cnccc2cc2n1CCc1c-2[nH]c2ccccc12
2. C[C@@H]1C(=O)O[C@@H]2C[C@@]1(C)[C@@H]1C(=O)C3(O)OC14C2(C)OC(=O)[C@@]4(O)CCC1C3C(O)C=C2CC=CC(=O)[C@@]21C (stereo partly specified)
3. CC(C)(CN1CCCCC1)C(=O)/C=C/c1ccccc1

1: > 77.6 µM; 2: > 200 µM; 3: > 141 µM

Batch of 3 molecules: report EC50 for each.
1. Cc1cccc(N2C(c3ccccc3)c3ccc(C)cc3NS2=O)c1 (stereo unspecified)
2. Cc1c(C(=O)O)[nH]c(=O)[nH]c1=O
3. O=c1c2cc(-c3ccccc3)sc2nc2n1N=C(c1ccc(Cl)cc1)CS2

["> 257 µM", "> 200 µM", "> 200 µM"]

----------
Tested on: CEM cells HIV-1 protection, formazan growth assay
ASSAY COMMENT: NCI AIDS Antiviral Assay
Activity calls are given as the source filed them.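 Rule for the calls: active = compounds giving half or more protection of infected cells from virus-caused growth loss, again on retest; inactive = the rest.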
Response enum: true (active), false (inactive)

                                   compound  class
0  CCCCCCCCCCCCCC(=O)OC1C(C)C2(O)C(C=C(CO)CC3(O)C(O)C(C)=CC32)C2C(C)(C)C12OC(C)=O (centres undefined)   true
1          CN(C)CC[N+]1=Nc2cccc3cccc(c23)N1  false
2  CC1=NC(C(=O)O)Cc2c1[nH]c1ccccc21 (centres undefined)  false
3  CC1=C2CC[C@]2(C)[C@]23OCC(C)(CC2C1=O)C3O (some centres undefined)  false
4  COc1ccc2cc1Oc1ccc(cc1)C[C@@H]1c3cc(c(OC)cc3CCN1C)Oc1c(OC)c(OC)cc3c1[C@@H](C2)N(C)CC3  false

How was `Cc1ccc(S(=O)(=O)n2cc(/C=C/C#N)c(/C=C/C#N)c2)cc1` classified in this test?
false

How was `COc1cc(-c2nccc3cc(OC)c(OC)cc23)ccc1O` classified in this test?
false

How was `c1ccc(OCc2nnc3n2N=C(c2ccccc2)CS3)cc1` classified in this test?
false

How was `O=C(Nc1ccc(N=Nc2ccc(S(=O)(=O)O)cc2)cc1)c1ccc(N=Nc2c(S(=O)(=O)O)cc(O)c3c(NC(=O)c4ccccc4)cc(S(=O)(=O)O)cc23)cc1` classified in this test?
true

----------
System: CEM cells HIV-1 protection, formazan growth assay
ASSAY COMMENT: NCI AIDS Antiviral Assay;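 active = compounds giving half or more protection of infected cells from virus-caused growth loss, again on retest; inactive = the rest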
Response enum: active, inactive

Some solved entries appear below for comparison.
In [3]: df
Out[3]:
                                   molecule     class
0  CC1(C)COC(c2ccc(C(=O)c3ccc(Cl)cc3)cc2)=N1  inactive
1         O=c1[nH]c(=O)n(Cc2ccccc2)cc1B(O)O  inactive
2  Cc1cn(C2CC(N=[N+]=[N-])C(COC(=O)CCCCCCCCCCCN=[N+]=[N-])O2)c(=O)[nH]c1=O (stereo unspecified)    active

How was `O=C(Nc1c[nH]c(=O)[nH]c1=O)c1ccc(S(=O)(=O)F)cc1` classified in this test?
inactive

How was `O=c1[nH]c2ccc(CC(=S)N3CCOCC3)cc2s1` classified in this test?
inactive

How was CCCOc1cnc([C@H]2CCC3[C@@H]4CC=C5C[C@@H](OC(C)=O)CC[C@]5(C)C4CC[C@@]32C)s1 (stereo partly specified) classified in this test?
inactive

How was CC(=O)OC1(C)C=C/C(=N\S(=O)(=O)c2ccc(C)cc2)c2ccccc21 (stereo unspecified) classified in this test?
inactive

How was `CCOP(=O)(OCC)Oc1ccc(Sc2ccc(OP(=O)(OCC)OCC)cc2)cc1` classified in this test?
inactive

How was CCOC(=O)CCC(NC(=O)OCc1ccccc1)C(=O)NNC(=O)OC(C)(C)C (stereo unspecified) classified in this test?
inactive

How was Cc1ccc(-n2cc(-c3ccc(Cl)cc3)c3c2N=CN2NC(c4ccco4)=NC32)cc1 (stereo unspecified) classified in this test?
inactive

----------
Hi there, I'd appreciate the recorded pIC50 for every entry that follows.
Tested on: CEM cells HIV-1 protection, formazan growth assay
ASSAY COMMENT: NCI AIDS Antiviral Assay
TEST CONTEXT: measured here: growth of uninfected CEM cells
Numbers only, as −log10 of the molar value.

Batch of 2 compounds: report pIC50 for each.
1. CCCCCCCCCCN(CCCCCCCCCC)CC(=O)Nc1ccc(S(=O)(=O)c2ccc(NC(=O)CN(CCCCCCCCCC)CCCCCCCCCC)cc2)cc1
2. CC(C)(CN1CCCCC1)C(=O)/C=C/c1ccccc1

1. 5.52
2. 4.16

----------
Test system: CEM cells HIV-1 protection, formazan growth assay
ASSAY COMMENT: NCI AIDS Antiviral Assay;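 active = compounds giving half or more protection of infected cells from virus-caused growth loss, again on retest; inactive = the rest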
Response enum: label 1 = active, label 0 = inactive

How was `CCOCC(=O)N[C@H]1CCc2cc(OC)c(OC)c(OC)c2-c2ccc(SC)c(=O)cc21` classified in this test?
label 0

How was `O=C(NNC1=NCCCN1)Nc1ccccc1` classified in this test?
label 0

----------
System: CEM cells HIV-1 protection, formazan growth assay
ASSAY COMMENT: NCI AIDS Antiviral Assay
TEST CONTEXT: measured here: growth of uninfected CEM cells
METRIC NAME: IC50 (µM)
Numbers only, in µM.

These solved cases illustrate the format of a correct answer.
>>> print(df.to_string())
                                   compound  quantitative_result
0  O=S(=O)(O)SCCNCC(O)C(O)CNCCSS(=O)(=O)O (stereo unspecified)                  120
1      Cc1cc2c3ccccc3n(C)c2c2c1C(=O)C=CC2=O                 5.89

Field: next compound
Complete the entry with IC50 for `N#Cc1c(-c2cccc3ccccc23)c2c([nH]c1=S)CCCC2`
34.7

----------
Hi there, I'd appreciate the recorded IC50 for every entry that follows.
Tested on: CEM cells HIV-1 protection, formazan growth assay
ASSAY COMMENT: NCI AIDS Antiviral Assay
TEST CONTEXT: measured here: growth of uninfected CEM cells
Where a SMILES comes first, the peptide text is derived from it.

These solved cases illustrate the format of a correct answer.
COMPOUND	IC50
CCC(C)C(NC(=O)C(CC(C)C)NC(=O)CNC(=O)C(CC(N)=O)NC(=O)C(CC(=O)O)NC(=O)C(N)CC(C)C)C(=O)NC(CC(C)C)C(=O)NC(C)C(=O)NC(Cc1ccc(O)cc1)C(=O)O (stereo unspecified) (H-LDNGLILAY-OH; configuration not given here)	> 50.1 µM
O=C1c2ccccc2C(=O)c2sc(Nc3ccc(Cl)c(Cl)c3)nc21	15.8 µM
CCOC(=O)C1(C(=O)OCC)CCC(C(OC)OC)C(CC(=O)OC)C1 (stereo unspecified)	> 200 µM
COC(=O)C(C(=O)C(=O)Nc1cccc(OC)c1)c1cnc2ccccc2n1 (stereo unspecified)	> 69.2 µM
CCCCCC=C(c1cc(Cl)c(OC)c(C(=O)OCCC)c1)c1cc(Cl)c(OC)c(C(=O)OCCC)c1	> 12.3 µM
Nn1c(N=Nc2c(O)[nH]c3c(Cl)cc(Cl)cc23)n[nH]c1=S	> 14.1 µM
CC(C)(C)OC(=O)N1CC(C)(C)N2C(=O)C3(CCCO3)C12 (stereo unspecified)	347 µM
OCCN(CCO)CN(CO)c1nc(N(CO)CN(CCO)CCO)nc(N(CO)CN(CCO)CCO)n1	> 437 µM

Batch of 8 compounds: report IC50 for each.
1. CCc1n[nH]c(=O)n1NC(=O)/C=C\C(=O)O
2. Cc1cn(C2CC(Br)C(COC(c3ccccc3)(c3ccccc3)c3ccccc3)O2)c(=O)[nH]c1=O (stereo unspecified)
3. CCSSc1ccccc1C(=O)O
4. C[C@@H]1C(=O)CC2(O)[C@@]13C[C@@H](OC(=O)[C@@H]3O)[C@@H](C)[C@@]21COC1=O (stereo partly specified)
5. CCOC(=O)C1CC2OC2CC1C(=O)OCC (stereo unspecified)
6. Cn1c2ccc3cc2c(=S)c2cc(ccc21)OCCOCCOCCOCCOCCO3
7. CC/C(=N/O)c1ccc2[nH]c3c(C)cc([N+](=O)[O-])c(C)c3c2c1
8. O=C(O)C(SSC(C(=O)O)(c1ccccc1)c1ccccc1)(c1ccccc1)c1ccccc1

["> 200 µM", "13.8 µM", "32.4 µM", "> 813 µM", "> 200 µM", "61.7 µM", "7.41 µM", "89.1 µM"]

Batch of 6 compounds: report IC50 for each.
1. O=c1[nH]c(N/N=C\C(=N/Nc2nc3ccccc3c(=O)[nH]2)C(O)C(O)C(O)CO)nc2ccccc12 (stereo unspecified)
2. c1ccc(CCN2CCc3[nH]c4ccccc4c3C2)cc1
3. CC1=C2CC/C(C)=C/CCC3(C)OC3CC/C(C)=C/C2OC1=O (stereo unspecified)
4. COC1=CC(=O)C(O)=C(CC2(C)C(C)CCC3(C)C2CCCC3(C)C)C1=O (stereo unspecified)
5. N#CCCN(CCN(CCN(C(=O)Nc1ccccc1)c1ccccc1)C(=O)Nc1ccccc1)C(=O)Nc1ccccc1
6. O=C(OCCN=C1c2ccccc2CCc2ccccc21)c1ccccc1

1. > 200 µM
2. 39.8 µM
3. > 200 µM
4. 6.46 µM
5. 9.33 µM
6. > 200 µM

Batch of 7 compounds: report IC50 for each.
1. Cc1cccc2c1Sc1ccccc1C2NC(=O)CCN(C)C (stereo unspecified)
2. O=c1ccn([C@H]2CSC[C@@H](CO)C2)c(=O)[nH]1
3. Oc1cc2cccc[n+]2c2cc(Cl)ccc12
4. [Cl-].[Rh+3].c1ccc(-c2ccnc3c2ccc2c(-c4ccccc4)ccnc23)cc1.c1ccc(-c2ccnc3c2ccc2c(-c4ccccc4)ccnc23)cc1.c1ccc(-c2ccnc3c2ccc2c(-c4ccccc4)ccnc23)cc1
5. Cn1c(=O)n2n(c1=O)C1CCC2CC1
6. CCOC(=O)C(C(=O)OCC)P(=S)(S)c1ccccc1 (stereo unspecified)
7. CSc1c2c([nH]c(=O)c1C#N)-c1ccccc1CC2

1. 31.6 µM
2. > 1020 µM
3. 91.2 µM
4. 7.08 µM
5. 437 µM
6. > 4370 µM
7. 166 µM
